System: Vesicular stomatitis virus
Experiment: Antiviral activity against Vesicular stomatitis virus strain indiana was evaluated in african green monkey kidney
Type: functional
observedProperty: ED50

Study these solved cases before continuing.
# smi, ED50
measured = [
    ("N.Nc1nc(=O)n([C@@H]2O[C@@H]3CO[PH](O)(O)O[C@H]3[C@H]2O)cc1Cl", "> 5 mM"),
    ("N.Nc1nc(=O)n([C@@H]2O[C@@H]3CO[PH](O)(O)O[C@H]3[C@H]2O)cc1Br", "> 5 mM"),
    ("N.Nc1nc(=O)n([C@@H]2O[C@@H]3CO[PH](O)(O)O[C@H]3[C@H]2O)cc1F", "5 mM"),
]

Okay, next one:
Incoming: Would you kindly share the measured ED50 for N.Nc1nc(=O)n([C@@H]2O[C@@H]3CO[PH](O)(O)O[C@H]3[C@H]2O)cc1I ?
Outgoing: > 5 mM

Provenance of the data: ChEMBL document CHEMBL1122970
